B1: TSN (parent)
chain: FVELQGFLAAEQDIREEIRKVVQS

variants of: B1; assay: protein stability index of a GFP-peptide fusion (GPS, HEK-293T) (PSI 1-6); higher = more stable; settings: c terminus: a fixed tail appended;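 also: lentivirally expressed fusions sorted by FACS into six bins by GFP to DsRed ratio, PSI derived from sequencing read proportions per bin multiplied by bin number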
Reported endpoint: protein stability index

{"columns": ["Changes", "Reported endpoint", "Assay result"],
 "data": [
  ["Q23M", "protein stability index", 1.98],
  ["A10K", "protein stability index", 1.62],
  ["R15G", "protein stability index", 1.41],
  ["D13A", "protein stability index", 3.62],
  ["E11D", "protein stability index", 1.39],
  ["A10I", "protein stability index", 2.04]
]}
